Test system: MAO-B (Homo sapiens, UniProt P27338)
Sequence (P27338 whole entry, species assumed): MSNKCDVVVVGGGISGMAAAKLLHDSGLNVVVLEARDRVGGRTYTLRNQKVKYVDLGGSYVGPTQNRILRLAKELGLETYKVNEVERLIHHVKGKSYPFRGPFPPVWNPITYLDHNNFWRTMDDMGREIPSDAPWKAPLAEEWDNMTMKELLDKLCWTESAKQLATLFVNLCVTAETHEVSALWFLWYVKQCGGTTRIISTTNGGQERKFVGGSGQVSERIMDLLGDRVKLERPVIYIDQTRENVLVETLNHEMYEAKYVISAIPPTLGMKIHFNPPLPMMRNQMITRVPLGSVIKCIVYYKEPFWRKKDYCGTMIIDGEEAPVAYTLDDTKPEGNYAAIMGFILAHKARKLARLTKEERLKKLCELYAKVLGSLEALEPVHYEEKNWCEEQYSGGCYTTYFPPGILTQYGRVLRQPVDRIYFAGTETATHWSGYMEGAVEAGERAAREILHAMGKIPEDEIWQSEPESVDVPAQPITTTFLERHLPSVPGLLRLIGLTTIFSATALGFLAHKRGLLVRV
Attribute measured: Ki (µM)
Answer in µM, number only, no unit symbol.

Ask: Form: Entry = `COC(=O)NC[C@H]1CN(c2cc(F)c3c(c2)CC(=O)N3C)C(=O)O1` | System = MAO-B (Homo sapiens, UniProt P27338) | Ki = ____
Result: 52.6
